experimentDescription: qHTS of pediatric cancer cell lines to identify multiple opportunities for drug repurposing: Primary screen for OHS-50 cells (AID 1347103); also: nearly all actives have a fitted effect of over 40% in size
testParameters: OHS-50 osteosarcoma viability, CellTiter-Glo luminescence, 48 h; series mostly up to 57.3 µM
Inconclusive results are not listed. Activity calls are given as the source filed them. Calls follow the shape of the dose curve; as a rule, active = well fitted cell-killing curve with a large enough effect; inconclusive = small, poorly fitted or top-dose-only effect; inactive = no such curve, though single readings can be large or run the other way.
Parameter call: string, one of T for active, F for inactive

compound=N#Cc1c(N(CC(=O)O)CC(=O)O)sc(C(=O)O)c1CC(=O)O qualitativelabel=F
compound=CCC=CC[C@H]1C(=O)CC[C@@H]1CC(=O)OC qualitativelabel=F
compound=COC(=O)Nc1ccc(-c2nc(N3CCOCC3)c3cnn(C4CCN(C(=O)OC)CC4)c3n2)cc1 qualitativelabel=T
compound=O=C(NC[C@H](O)CO)c1ccncc1Nc1ccc(I)cc1F qualitativelabel=F

Just curious, what result did "CCOC(=O)[C@H]1O[C@H]1C(=O)N[C@@H](CC(C)C)C(=O)NCCC(C)C" get here?
F

Hey, what did the test say about "CC[C@H](C=C[C@@H](C)[C@H]1CC[C@H]2[C@@H]3CC=C4C[C@@H](O)CC[C@]4(C)[C@@H]3CC[C@]12C)C(C)C" ?
F

Test call, this compound: "CC(C)CNc1ccnc(NCc2csc(-c3ccccc3)n2)n1"
T

Please let me know the test result on file for "OC[C@H]1O[C@@H](O[C@H]2[C@@H](O)[C@@](O)(CO)O[C@@H]2CO)[C@H](O)[C@@H](O)[C@@H]1O" .
F

Dear all, I need the recorded test outcome for "CC[C@]1(O)C[C@H]2CN(CCC3=c4ccccc4=N[C]3[C@@](C(=O)OC)(c3cc4c(cc3OC)N(C)[C@H]3[C@@](O)(C(N)=O)[C@H](O)[C@]5(CC)C=CCN6CC[C@]43[C@@H]65)C2)C1" , thank you.
T

// outcome(item) with item = CN1c2ccccc2C(=O)N2CCc3c([nH]c4ccccc34)C21 (stereo not drawn)
F

Please let me know the test result on file for "C[C@@H](O)[C@H]1C(=O)N2C(C(=O)OCOC(=O)C(C)(C)C)=C(SC3CN(C4=NCCS4)C3)[C@H](C)[C@H]12" .
F

Write down the call the test reported for this compound. Item: "Cc1ccc(NC(=O)Nc2cc(C(F)(F)F)ccc2F)cc1Nc1ccc2c(c1)NC(=O)C2=Cc1ccc[nH]1"
T

So what was the verdict on "CC(C)c1c(C(=O)Nc2ccccc2)c(-c2ccccc2)c(-c2ccc(F)cc2)n1CC[C@H](O)C[C@@H](O)CC(=O)O" in this test?
T

Call for entry "C[C@@]1(C(=O)Nc2ccc(F)nc2)CCCN1c1nc(Nc2cc(C3CC3)[nH]n2)c2cccn2n1" :
T

How was "N#CC1(c2cccc(C(=O)Nc3cc(Oc4ccc5nc(NC(=O)C6CC6)sc5n4)ccc3F)c2Cl)CC1" classified in this test?
T

For "N[C@@H](CC(=O)N1CCn2c(nnc2C(F)(F)F)C1)Cc1cc(F)c(F)cc1F" , what call appears in the results of this test?
F

Can you look up the reported call for Cc1nn(Cc2ccccc2Cl)c(C)c1CN(C)CC(O)COc1ccc(Cl)cc1 (stereo not drawn) for me?
T

For Nc1ncnc2c1c(-c1cccc(OCc3ccccc3)c1)cn2C1CC(CN2CCC2)C1 (stereo not drawn) , what call appears in the results of this test?
T

---

testedOn: Cytochrome P450 2D6 (Homo sapiens) (UniProt P10635)
Sequence (P10635 whole entry, looked up): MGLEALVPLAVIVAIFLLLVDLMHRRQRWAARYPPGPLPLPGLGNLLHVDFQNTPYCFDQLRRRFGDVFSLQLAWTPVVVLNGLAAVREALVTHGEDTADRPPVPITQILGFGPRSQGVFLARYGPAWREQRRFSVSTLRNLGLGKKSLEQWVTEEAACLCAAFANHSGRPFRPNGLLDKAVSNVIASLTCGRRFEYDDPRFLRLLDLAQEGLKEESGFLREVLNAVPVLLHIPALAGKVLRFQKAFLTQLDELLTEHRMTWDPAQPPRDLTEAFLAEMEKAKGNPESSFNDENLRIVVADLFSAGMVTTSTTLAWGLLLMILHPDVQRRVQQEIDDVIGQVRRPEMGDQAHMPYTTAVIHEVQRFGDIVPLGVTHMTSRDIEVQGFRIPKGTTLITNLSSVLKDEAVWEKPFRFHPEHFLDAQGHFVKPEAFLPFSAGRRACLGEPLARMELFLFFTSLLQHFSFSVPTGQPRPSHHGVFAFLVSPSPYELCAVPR
experimentDescription: Cytochrome P450 family 2 subfamily D member 6 (CYP2D6) small molecule antagonists: luciferase biochemical (cell-free) qHTS assay (AID 1645840); also: nearly all actives have a fitted effect of over 55% in size
testParameters: P450-Glo CYP2D6 enzyme, luciferin luminescence, 1 h; series mostly up to 57.4 µM
Records with an inconclusive call do not appear. Activity calls are given as the source filed them. Calls follow the shape of the dose curve; as a rule, active = well fitted inhibition curve with a large enough effect in the repeat runs; inconclusive = weak or mixed curves; inactive = flat fitted curve, though single readings scatter.
Mark one answer only. Choices: active, inactive

Some entries whose results are on file:
compound=C[C@@H](NC(=O)c1ncnc(N)c1Cl)c1ncc(C(=O)Nc2cc(C(F)(F)F)c(Cl)cn2)s1 testedon="Cytochrome P450 2D6 (Homo sapiens) (UniProt P10635)" qualitativelabel=inactive
compound=Cn1cnc(-c2cc3nccc(Oc4ccc(NC(=S)NC(=O)Cc5ccccc5)cc4F)c3s2)c1 testedon="Cytochrome P450 2D6 (Homo sapiens) (UniProt P10635)" qualitativelabel=inactive
compound=Nc1ccc(-c2ccc3ncc4ccc(=O)n(-c5cccc(C(F)(F)F)c5)c4c3c2)cn1 testedon="Cytochrome P450 2D6 (Homo sapiens) (UniProt P10635)" qualitativelabel=active
compound=Cc1cc(-c2ncc(CC(=O)Nc3ccc(-c4cnccn4)cn3)cc2C)ccn1 testedon="Cytochrome P450 2D6 (Homo sapiens) (UniProt P10635)" qualitativelabel=inactive
compound="Cc1nn(Cc2ccccc2Cl)c(C)c1CN(C)CC(O)COc1ccc(Cl)cc1 (stereo not drawn)" testedon="Cytochrome P450 2D6 (Homo sapiens) (UniProt P10635)" qualitativelabel=active

In this assay, the call recorded for "COc1ccc(-c2cc3nccn3c(Nc3ncccc3C(N)=O)n2)cc1OC" was what?
inactive

Please share the test call associated with "CN(C)c1ccc(-c2nc3ncc(Cl)c(N4CCN(CC(=O)Nc5nccs5)CC4)c3[nH]2)cc1" .
inactive

Entry "CC1(COc2ccc3c(c2)ncn3-c2ccc3cccc(N4CCC(N)CC4)c3n2)COC1" : call = ?
active
